src = patent US11248234B2

Listed here: items and their measured pKi.
# experimentalSystem: Scenedesmus HPPD (Seq ID: 2) (Tetradesmus obliquus, UniProt A0A383WMN4, N195D)
# Sequence (A0A383WMN4 entry or part of it N195D): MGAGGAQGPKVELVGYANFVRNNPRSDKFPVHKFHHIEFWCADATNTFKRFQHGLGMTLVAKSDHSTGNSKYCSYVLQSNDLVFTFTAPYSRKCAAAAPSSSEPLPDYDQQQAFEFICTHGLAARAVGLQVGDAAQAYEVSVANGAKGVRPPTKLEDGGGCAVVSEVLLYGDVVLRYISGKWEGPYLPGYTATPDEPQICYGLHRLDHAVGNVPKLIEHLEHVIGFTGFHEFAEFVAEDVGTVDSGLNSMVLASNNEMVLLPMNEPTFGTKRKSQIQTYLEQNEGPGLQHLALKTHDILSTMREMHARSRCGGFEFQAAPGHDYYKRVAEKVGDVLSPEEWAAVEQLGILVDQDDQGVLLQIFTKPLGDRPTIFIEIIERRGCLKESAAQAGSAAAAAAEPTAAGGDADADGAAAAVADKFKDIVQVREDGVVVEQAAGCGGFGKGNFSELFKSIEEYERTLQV
# testSummary: In vitro HPPD activity assay
Remember the convention: pKi equals -log10 of concentration in molar.

CN(c1c(Cl)ccc(C2=C(O)c3ncccc3C(C)(C)S2(=O)=O)c1Cl)S(C)(=O)=O : 6.96

--- query ---
The value of pKi measured for the molecule Cc1c(C(=O)c2cnn(C)c2O)ccc(S(C)(=O)=O)c1C1=NOCC1 turned out to be 7.96

---

Listed here: items and their measured Ki.
# experimentalSystem: Scenedesmus Short HPPD (Seq ID: 4) (Tetradesmus obliquus, UniProt A0A383WMN4, DEL398-433/N195D)
# Sequence (A0A383WMN4 entry or part of it N195D/DEL398-433): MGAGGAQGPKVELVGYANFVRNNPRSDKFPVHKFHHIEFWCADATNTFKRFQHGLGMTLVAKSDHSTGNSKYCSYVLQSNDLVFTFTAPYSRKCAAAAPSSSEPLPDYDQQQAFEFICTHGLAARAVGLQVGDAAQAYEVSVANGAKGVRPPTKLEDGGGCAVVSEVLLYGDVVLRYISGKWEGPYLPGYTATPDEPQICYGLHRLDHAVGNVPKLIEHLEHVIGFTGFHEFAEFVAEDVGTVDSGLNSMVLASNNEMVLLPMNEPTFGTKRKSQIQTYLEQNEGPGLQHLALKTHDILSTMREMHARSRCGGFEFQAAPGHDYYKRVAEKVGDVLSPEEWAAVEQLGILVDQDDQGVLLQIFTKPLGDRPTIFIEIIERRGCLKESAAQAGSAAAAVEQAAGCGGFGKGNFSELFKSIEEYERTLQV
# testSummary: In vitro HPPD activity assay
Your answer is read as nM, so omit the unit and give the number.

The value of Ki measured for the compound Cc1c(C(=O)c2cnn(C)c2O)ccc(S(C)(=O)=O)c1C1=NOCC1 turned out to be 46

The value of Ki measured for the compound CN(c1c(Cl)ccc(C2=C(O)c3ncccc3C(C)(C)S2(=O)=O)c1Cl)S(C)(=O)=O turned out to be 580

---

# Test system: SoHPPD L367V, I375L (short)
# testSummary: In vitro HPPD activity assay
# Assay type: biochemical, Scenedesmus obliquus
# conditionSet: normalized on Arabidopsis wild-type HPPD (SEQ ID NO:42)
Listed here: items and their measured TI (normalized tolerance index).
Please respond with just the number, no unit label.

Example compounds with recorded TI (normalized tolerance index):
CCS(=O)(=O)c1cc(C(F)(F)F)ccc1C1=C(O)c2ncccc2C(C)(C)S1(=O)=O : 0.3
CC[S+]([O-])c1c(Cl)cc(F)c(C(=O)Nc2nnnn2C)c1Cl (centres unmarked) : 0.4
CCSc1ccc(Cl)c(C(=O)Nc2nnnn2C)c1Cl : 0.7
CC(=O)N(C)c1c(Cl)ccc(C2=C(O)c3ncccc3C(C)(C)S2(=O)=O)c1Cl : 0.3

--- query ---
The value of TI (normalized tolerance index) measured for the compound CS(=O)(=O)c1ccc(C(=O)C2C(=O)CCCC2=O)c([N+](=O)[O-])c1 turned out to be 0.0

---

# Test system: SoHPPD E345Q, K326D (short)
# testSummary: In vitro HPPD activity assay
# Assay type: biochemical, Scenedesmus obliquus
# conditionSet: normalized on Arabidopsis wild-type HPPD (SEQ ID NO:42)
Listed here: items and their measured TI (normalized tolerance index).
Please respond with just the number, no unit label.

Example compounds with recorded TI (normalized tolerance index):
CS(=O)(=O)c1ccc(C(=O)C2C(=O)CCCC2=O)c([N+](=O)[O-])c1 : 0.1
CC(=O)N(C)c1c(Cl)ccc(C2=C(O)c3ncccc3C(C)(C)S2(=O)=O)c1Cl : 0.2
CCSc1ccc(Cl)c(C(=O)Nc2nnnn2C)c1Cl : 0.3

--- query ---
The value of TI (normalized tolerance index) measured for the compound CCS(=O)(=O)c1cc(C(F)(F)F)ccc1C1=C(O)c2ncccc2C(C)(C)S1(=O)=O turned out to be 0.0

---

# Test system: transgenic Arabidopsis plants (T2) SoHPPD F363I (short)
# testSummary: Greenhouse spray test, injury evaluation
# Format: in vivo, Arabidopsis thaliana
# conditionSet: Event B; 6.25 g ai/ha; 14 DAT
Listed here: items and their measured Injury.
Your answer is read as %, so omit the unit and give the number.

CSc1c(Cl)cc(F)c(C(=O)Nc2nnnn2C)c1Cl : 5
CS(=O)(=O)c1ccc(C(=O)C2C(=O)CCCC2=O)c([N+](=O)[O-])c1 : 0
CSc1c(C(F)(F)F)ccc(C(=O)Nc2nnnn2C)c1Cl : 0

--- query ---
The value of Injury measured for the compound Cc1c(C(=O)c2cnn(C)c2O)ccc(S(C)(=O)=O)c1C1=NOCC1 turned out to be 0

---

# Test system: transgenic Arabidopsis plants (T2) SoHPPD I419V (short)
# testSummary: Greenhouse spray test, injury evaluation
# Type: in vivo, Arabidopsis thaliana
# conditionSet: Event H; 1.56 g ai/ha; 14 DAT
measure: Injury
Please give the number followed by its unit.

The value of Injury measured for the compound Cc1c(C(=O)c2cnn(C)c2O)ccc(S(C)(=O)=O)c1C1=NOCC1 turned out to be 0%

---

# Test system: transgenic Arabidopsis plants (T2) SoHPPD Q317H (short)
# testSummary: Greenhouse spray test, injury evaluation
# Assay type: in vivo, Arabidopsis thaliana
# conditionSet: Event C; 1.56 g ai/ha; 14 DAT
Listed here: items and their measured Injury.
Your answer is read as %, so omit the unit and give the number.

Example molecules with recorded Injury:
Cc1c(C(=O)c2cnn(C)c2O)ccc(S(C)(=O)=O)c1C1=NOCC1 [Inhibitor 1] : 0
CS(=O)(=O)c1ccc(C(=O)C2C(=O)CCCC2=O)c([N+](=O)[O-])c1 [Inhibitor 2] : 0
CSc1c(Cl)cc(F)c(C(=O)Nc2nnnn2C)c1Cl [Inhibitor 7] : 0

--- query ---
The value of Injury measured for the molecule CSc1c(C(F)(F)F)ccc(C(=O)Nc2nnnn2C)c1Cl [Inhibitor 11] turned out to be 15

---

# Test system: SoHPPD A318R, L350M (short)
# testSummary: In vitro HPPD activity assay
# Assay type: biochemical, Scenedesmus obliquus
# conditionSet: normalized on Arabidopsis wild-type HPPD (SEQ ID NO:42)
measure: TI (normalized tolerance index)
Please respond with just the number, no unit label.

CS(=O)(=O)c1ccc(C(=O)C2C(=O)CCCC2=O)c([N+](=O)[O-])c1 [Inhibitor 2] : 0.8
CCS(=O)(=O)c1cc(C(F)(F)F)ccc1C1=C(O)c2ncccc2C(C)(C)S1(=O)=O [Inhibitor 4] : 1.0
CC(=O)N(C)c1c(Cl)ccc(C2=C(O)c3ncccc3C(C)(C)S2(=O)=O)c1Cl [Inhibitor 5] : 0.7
CC[S+]([O-])c1c(Cl)cc(F)c(C(=O)Nc2nnnn2C)c1Cl (centres unmarked) [Inhibitor 9] : 1.2

The value of TI (normalized tolerance index) measured for the compound CCSc1ccc(Cl)c(C(=O)Nc2nnnn2C)c1Cl [Inhibitor 8] turned out to be 1.2

---

# Tested on: SoHPPD E345Q, K326Q (short)
# testSummary: In vitro HPPD activity assay
# Type: biochemical, Scenedesmus obliquus
# conditionSet: normalized on Arabidopsis wild-type HPPD (SEQ ID NO:42)
Listed here: items and their measured TI (normalized tolerance index).
Please respond with just the number, no unit label.

Example compounds with recorded TI (normalized tolerance index):
CS(=O)(=O)c1ccc(C(=O)C2C(=O)CCCC2=O)c([N+](=O)[O-])c1 [Inhibitor 2] : 0.1
CCS(=O)(=O)c1cc(C(F)(F)F)ccc1C1=C(O)c2ncccc2C(C)(C)S1(=O)=O [Inhibitor 4] : 0.0
CCSc1ccc(Cl)c(C(=O)Nc2nnnn2C)c1Cl [Inhibitor 8] : 0.3

--- query ---
The value of TI (normalized tolerance index) measured for the compound CC(=O)N(C)c1c(Cl)ccc(C2=C(O)c3ncccc3C(C)(C)S2(=O)=O)c1Cl [Inhibitor 5] turned out to be 0.2

---

# Test system: transgenic Arabidopsis plants (T2) SoHPPD I419V (short)
# testSummary: Greenhouse spray test, injury evaluation
# Format: in vivo, Arabidopsis thaliana
# conditionSet: Event G; 6.25 g ai/ha; 14 DAT
measure: Injury (%)
Your answer is read as %, so omit the unit and give the number.

The value of Injury measured for the compound CS(=O)(=O)c1ccc(C(=O)C2C(=O)CCCC2=O)c([N+](=O)[O-])c1 [Inhibitor 2] turned out to be 0

The value of Injury measured for the compound CSc1c(Cl)cc(F)c(C(=O)Nc2nnnn2C)c1Cl [Inhibitor 7] turned out to be 28

The value of Injury measured for the compound Cc1c(C(=O)c2cnn(C)c2O)ccc(S(C)(=O)=O)c1C1=NOCC1 [Inhibitor 1] turned out to be 8

The value of Injury measured for the compound CSc1c(C(F)(F)F)ccc(C(=O)Nc2nnnn2C)c1Cl [Inhibitor 11] turned out to be 83

---

# Test system: SoHPPD V251A, H306R, Q317L, A318P, G321P, K331E, L350M (short)
# testSummary: In vitro HPPD activity assay
# Format: biochemical, Scenedesmus obliquus
# conditionSet: normalized on Arabidopsis wild-type HPPD (SEQ ID NO:42)
measure: TI (normalized tolerance index)
Please respond with just the number, no unit label.

Example molecules with recorded TI (normalized tolerance index):
CCSc1ccc(Cl)c(C(=O)Nc2nnnn2C)c1Cl [Inhibitor 8] : 0.2
CCS(=O)(=O)c1cc(C(F)(F)F)ccc1C1=C(O)c2ncccc2C(C)(C)S1(=O)=O [Inhibitor 4] : 0.0
CC(=O)N(C)c1c(Cl)ccc(C2=C(O)c3ncccc3C(C)(C)S2(=O)=O)c1Cl [Inhibitor 5] : 0.3

The value of TI (normalized tolerance index) measured for the molecule CS(=O)(=O)c1ccc(C(=O)C2C(=O)CCCC2=O)c([N+](=O)[O-])c1 [Inhibitor 2] turned out to be 0.7
